Assay: Pharmacokinetic test in SD rats
Format: in vivo
Conditions: male, plasma, rat, iv, 1 mg/kg, read-out: Vss
outcome-measure: Vd (L/kg)

                                   compound  outcome_measure  observed_result
0  [2H]c1ccc([C@H](C)Nc2cc(=O)n(C(C)C)c(=O)[nH]2)cc1 [Example 2]               Vd             4.03
1  CC(C)n1c(=O)cc(N[C@@H](C)c2ccccc2)[nH]c1=O [MYK461, reference compound]               Vd             4.87
2  [2H]C([2H])([2H])C(n1c(=O)cc(N[C@@H](C)c2ccccc2)[nH]c1=O)C([2H])([2H])[2H] [Example 5]               Vd              2.6
3  [2H]c1c([2H])c([2H])c([C@H](C)Nc2cc(=O)n(C(C)C)c(=O)[nH]2)c([2H])c1[2H] [Example 1]               Vd             4.56

###

Assay: Pharmacokinetic test in SD rats
Format: in vivo
Conditions: male, plasma, rat, iv, 1 mg/kg
outcome-measure: AUC(0-inf) (ng·h/mL)

>>> df
                                   compound  outcome_measure  observed_result
0  [2H]c1ccc([C@H](C)Nc2cc(=O)n(C(C)C)c(=O)[nH]2)cc1 [Example 2]       AUC(0-inf)             4670
1  [2H]C([2H])([2H])C(n1c(=O)cc(N[C@@H](C)c2ccccc2)[nH]c1=O)C([2H])([2H])[2H] [Example 5]       AUC(0-inf)             5690
2  [2H]c1c([2H])c([2H])c([C@H](C)Nc2cc(=O)n(C(C)C)c(=O)[nH]2)c([2H])c1[2H] [Example 1]       AUC(0-inf)             6830
3  CC(C)n1c(=O)cc(N[C@@H](C)c2ccccc2)[nH]c1=O [MYK461, reference compound]       AUC(0-inf)             3090

###

Assay: Pharmacokinetic test in SD rats
Type: in vivo
Conditions: male, plasma, rat, iv, 1 mg/kg
outcome-measure: half-life (min)

                                   compound  units_text  observed_result
0  [2H]c1c([2H])c([2H])c([C@H](C)Nc2cc(=O)n(C(C)C)c(=O)[nH]2)c([2H])c1[2H]         min             1360
1  [2H]c1ccc([C@H](C)Nc2cc(=O)n(C(C)C)c(=O)[nH]2)cc1         min              834
2  [2H]C([2H])([2H])C(n1c(=O)cc(N[C@@H](C)c2ccccc2)[nH]c1=O)C([2H])([2H])[2H]         min              678
3  CC(C)n1c(=O)cc(N[C@@H](C)c2ccccc2)[nH]c1=O [MYK461, reference compound]         min              696

###

Test: Pharmacokinetic test in SD rats
Assay type: in vivo
Conditions: male, plasma, rat, iv, 1 mg/kg
Procedure: Experimental animals: 4 healthy adult male SD rats (purchased from Hunan SJA Laboratory Animal Co., Ltd) were divided into two groups, […]. Drug preparation: a certain amount of the compound of the present disclosure or MYK461 is weighted, and 10% DMSO, 10% Kolliphor HS15 and 80% saline are added to prepare the compound solution with target concentration. […]
outcome-measure: clearance (mL/min/kg)

>>> df
                                   compound  outcome_measure  observed_result
0  [2H]c1ccc([C@H](C)Nc2cc(=O)n(C(C)C)c(=O)[nH]2)cc1        clearance             3.57
1  [2H]C([2H])([2H])C(n1c(=O)cc(N[C@@H](C)c2ccccc2)[nH]c1=O)C([2H])([2H])[2H]        clearance             2.93
2  CC(C)n1c(=O)cc(N[C@@H](C)c2ccccc2)[nH]c1=O [MYK461, reference compound]        clearance             5.39
3  [2H]c1c([2H])c([2H])c([C@H](C)Nc2cc(=O)n(C(C)C)c(=O)[nH]2)c([2H])c1[2H]        clearance             2.44
